Numbers sourced from the supplement of paper PMC5998384.

I'd appreciate it if you could supply thermal stability score values for the items below.
Tested on: HeLa Kyoto
ASSAY INFO: thermal stability score vs G1/S (z-score of summed log2 fold changes over temperatures); higher = more thermally stable than in G1/S
CONDITION INFO: cell cycle stage: mitosis

SUBSTANCE | thermal stability score
KIDINS220 | -1.61

Give one value of thermal stability score per listed substance.
1. MASRGRRPEHGGPPELFYDETEARKYVRNSRMIDIQTRMAGRALELLYLPENKPCYLLDIGCGTGLSGSYLSDEGHYWVGLDISPAMLDEAVDREIEGDLLLGDMGQGIPFKPGTFDGCISISAVQWLCNANKKSENPAKRLYCFFASLFSVLVRGSRAVLQLYPENSEQLELITTQATKAGFSGGMVVDYPNSAKAKKFYLCLFSGPSTFIPEGLSENQDEVEPRESVFTNERFPLRMSRRGMVRKSRAWVLEKKERHRRQGREVRPDTQYTGRKRKPRF [WBSCR22]
2. MLARAARGTGALLLRGSLLASGRAPRRASSGLPRNTVVLFVPQQEAWVVERMGRFHRILEPGLNILIPVLDRIRYVQSLKEIVINVPEQSAVTLDNVTLQIDGVLYLRIMDPYKASYGVEDPEYAVTQLAQTTMRSELGKLSLDKVFRERESLNASIVDAINQAADCWGIRCLRYEIKDIHVPPRVKESMQMQVEAERRKRATVLESEGTRESAINVAEGKKQAQILASEAEKAEQINQAAGEASAVLAKAKAKAEAIRILAAALTQHNGDAAASLTVAEQYVSAFSKLAKDSNTILLPSNPGDVTSMVAQAMGVYGALTKAPVPGTPDSLSSGSSRDVQGTDASLDEELDRVKMS [STOML2]

[0.578, -3.22]

###

System: HeLa Kyoto
ASSAY INFO: melting temperature (median over replicates), in situ; higher = more thermally stable
CONDITION INFO: cell cycle stage: G1/S
MEASURE NAME: melting temperature (°C)
Numbers only, in °C.

SEQUENCE STRING | UNIT OF MEASURE | melting temperature
MTERFDCHHCNESLFGKKYILREESPYCVVCFETLFANTCEECGKPIGCDCKDLSYKDRHWHEACFHCSQCRNSLVDKPFAAKEDQLLCTDCYSNEYSSKCQECKKTIMPGTRKMEYKGSSWHETCFICHRCQQPIGTKSFIPKDNQNFCVPCYEKQHAMQCVQCKKPITTGGVTYREQPWHKECFVCTACRKQLSGQRFTARDDFAYCLNCFCDLYAKKCAGCTNPISGLGGTKYISFEERQWHNDCFNCKKCSLSLVGRGFLTERDDILCPDCGKDI [FHL2] | °C | 52
MFRRPVLQVLRQFVRHESETTTSLVLERSLNRVHLLGRVGQDPVLRQVEGKNPVTIFSLATNEMWRSGDSEVYQLGDVSQKTTWHRISVFRPGLRDVAYQYVKKGSRIYLEGKIDYGEYMDKNNVRRQATTIIADNIIFLSDQTKEKE [SSBP1] | °C | 59.5

Now let's try a different one.
Param item = MDNSGKEAEAMALLAEAERKVKNSQSFFSGLFGGSSKIEEACEIYARAANMFKMAKNWSAAGNAFCQAAQLHLQLQSKHDAATCFVDAGNAFKKADPQEAINCLMRAIEIYTDMGRFTIAAKHHISIAEIYETELVDIEKAIAHYEQSADYYKGEESNSSANKCLLKVAGYAALLEQYQKAIDIYEQVGTNAMDSPLLKYSAKDYFFKAALCHFCIDMLNAKLAVQKYEELFPAFSDSRECKLMKKLLEAHEEQNVDSYTESVKEYDSISRLDQWLTTMLLRIKKTIQGDEEDLR [NAPA] ; retrieve measured melting temperature. 51.7

###

System: HeLa Kyoto
ASSAY INFO: thermal stability score vs G1/S (z-score of summed log2 fold changes over temperatures); higher = more thermally stable than in G1/S
CONDITION INFO: cell cycle stage: early G1 (4.5 h after nocodazole release)
Use condition met when the recorded thermal stability score is no lower than 0.3; use condition not met when it is lower.

Some entries whose results are on file:
SEQUENCE STRING | CAT
MENQVLTPHVYWAQRHRELYLRVELSDVQNPAISITENVLHFKAQGHGAKGDNVYEFHLEFLDLVKPEPVYKLTQRQVNITVQKKVSQWWERLTKQEKRPLFLAPDFDRWLDESDAEMELRAKEEERLNKLRLESEGSPETLTNLRKGYLFMYNLVQFLGFSWIFVNLTVRFCILGKESFYDTFHTVADMMYFCQMLAVVETINAAIGVTTSPVLPSLIQLLGRNFILFIIFGTMEEMQNKAVVFFVFYLWSAIEIFRYSFYMLTCIDMDWKVLTWLRYTLWIPLYPLGCLAEAVSVIQSIPIFNETGRFSFTLPYPVKIKVRFSFFLQIYLIMIFLGLYINFRHLYKQRRRRYGQKKKKIH [HACD3] | condition not met
MLLLAAAFLVAFVLLLYMVSPLISPKPLALPGAHVVVTGGSSGIGKCIAIECYKQGAFITLVARNEDKLLQAKKEIEMHSINDKQVVLCISVDVSQDYNQVENVIKQAQEKLGPVDMLVNCAGMAVSGKFEDLEVSTFERLMSINYLGSVYPSRAVITTMKERRVGRIVFVSSQAGQLGLFGFTAYSASKFAIRGLAEALQMEVKPYNVYITVAYPPDTDTPGFAEENRTKPLETRLISETTSVCKPEQVAKQIVKDAIQGNFNSSLGSDGYMLSALTCGMAPVTSITEGLQQVVTMGLFRTIALFYLGSFDSIVRRCMMQREKSENADKTA [KDSR] | condition not met
MSSSVEQKKGPTRQRKCGFCKSNRDKECGQLLISENQKVAAHHKCMLFSSALVSSHSDNESLGGFSIEDVQKEIKRGTKLMCSLCHCPGATIGCDVKTCHRTYHYHCALHDKAQIREKPSQGIYMVYCRKHKKTAHNSEADLEESFNEHELEPSSPKSKKKSRKGRPRKTNFKGLSEDTRSTSSHGTDEMESSSYRDRSPHRSSPSDTRPKCGFCHVGEEENEARGKLHIFNAKKAAAHYKCMLFSSGTVQLTTTSRAEFGDFDIKTVLQEIKRGKRMKCTLCSQPGATIGCEIKACVKTYHYHCGVQDKAKYIENMSRGIYKLYCKNHSGNDERDEEDEERESKSRGKVEIDQQQLTQQQLNGN [PHF6] | condition met
MEKIPVSAFLLLVALSYTLARDTTVKPGAKKDTKDSRPKLPQTLSRGWGDQLIWTQTYEEALYKSKTSNKPLMIIHHLDECPHSQALKKVFAENKEIQKLAEQFVLLNLVYETTDKHLSPDGQYVPRIMFVDPSLTVRADITGRYSNRLYAYEPADTALLLDNMKKALKLLKTEL [AGR2] | condition met
MQPASAKWYDRRDYVFIEFCVEDSKDVNVNFEKSKLTFSCLGGSDNFKHLNEIDLFHCIDPNDSKHKRTDRSILCCLRKGESGQSWPRLTKERAKLNWLSVDFNNWKDWEDDSDEDMSNFDRFSEMMNNMGGDEDVDLPEVDGADDDSQDSDDEKMPDLE [PTGES3] | condition met

Now take the following sequence into account.
Item MGTPGEGLGRCSHALIRGVPESLASGEGAGAGLPALDLAKAQREHGVLGGKLRQRLGLQLLELPPEESLPLGPLLGDTAVIQGDTALITRPWSPARRPEVDGVRKALQDLGLRIVEIGDENATLDGTDVLFTGREFFVGLSKWTNHRGAEIVADTFRDFAVSTVPVSGPSHLRGLCGMGGPRTVVAGSSDAAQKAVRAMAVLTDHPYASLTLPDDAAADCLFLRPGLPGVPPFLLHRGGGDLPNSQEALQKLSDVTLVPVSCSELEKAGAGLSSLCLVLSTRPHS [DDAH2] with thermal stability score of 0.3 or above? condition not met

###

System: HeLa Kyoto
ASSAY INFO: thermal stability score vs G1/S (z-score of summed log2 fold changes over temperatures); higher = more thermally stable than in G1/S
CONDITION INFO: cell cycle stage: early G1 (4.5 h after nocodazole release)
MEASURE NAME: thermal stability score
Numbers only.

Request the reported thermal stability score associated with MAMRQTPLTCSGHTRPVVDLAFSGITPYGYFLISACKDGKPMLRQGDTGDWIGTFLGHKGAVWGATLNKDATKAATAAADFTAKVWDAVSGDELMTLAHKHIVKTVDFTQDSNYLLTGGQDKLLRIYDLNKPEAEPKEISGHTSGIKKALWCSEDKQILSADDKTVRLWDHATMTEVKSLNFNMSVSSMEYIPEGEILVITYGRSIAFHSAVSLDPIKSFEAPATINSASLHPEKEFLVAGGEDFKLYKYDYNSGEELESYKGHFGPIHCVRFSPDGELYASGSEDGTLRLWQTVVGKTYGLWKCVLPEEDSGELAKPKIGFPETTEEELEEIASENSDCIFPSAPDVKA [STRAP] -1.2
